assay: Plasma protein binding in mouse; format: ADME, cell-free; settings: read-out: PPB (converted)
Please provide measured fraction unbound for the entries that follow.
Numbers only.

[[record]]
query_smiles = "O=C(NC1CC1)c1cc2c(Oc3ccc(Cl)cc3)cncc2s1"
test_readout = "fraction unbound"
observed_result = 0.009

[[record]]
query_smiles = "Cc1ncc(Oc2ccc(Cl)cc2)c2cc(C(N)=O)sc12"
test_readout = "fraction unbound"
observed_result = 0.012

[[record]]
query_smiles = "COc1ccc(Oc2cncc3sc(C(N)=O)cc23)cc1"
test_readout = "fraction unbound"
observed_result = 0.098

[[record]]
query_smiles = "O=C(O)c1cc2c(Oc3ccc(Cl)cc3)cncc2s1"
test_readout = "fraction unbound"
observed_result = 0.003

[[record]]
query_smiles = "N#Cc1ccc(Oc2cncc3sc(C(N)=O)cc23)cc1"
test_readout = "fraction unbound"
observed_result = 0.109


Batch request: fraction unbound for each of the following compounds.
1. NC(=O)c1cc2c(Oc3ccc(Cl)cc3)cnc(N)c2s1
2. NC(=O)c1cc2c(Oc3ccc(OC(F)(F)F)cc3)cncc2s1
3. CC(=O)c1cc2c(Oc3ccc(Cl)cc3)cncc2s1
4. CNC(=O)c1cc2c(Oc3ccc(Cl)cc3)cncc2s1
5. CNC(=O)c1cc2c(Oc3ccc(I)cc3)cncc2s1
6. NC(=O)c1ccc(Oc2cncc3sc(C(N)=O)cc23)cc1
7. Cc1ccc(Oc2cncc3sc(C(N)=O)cc23)cc1
8. CC(=O)Nc1ccc(Oc2cncc3sc(C(N)=O)cc23)cc1

1: 0.041; 2: 0.028; 3: 0.003; 4: 0.023; 5: 0.002; 6: 0.217; 7: 0.039; 8: 0.204

====

For each of the molecules below, state its fraction unbound.
test: Plasma protein binding in human; type: ADME, cell-free; conditions: read-out: PPB (converted)

# annotated cases, reported fraction unbound shown
[[record]]
query_smiles = "NC(=O)c1cc2c(Oc3ccc(Cl)cc3)cnc(N)c2s1"
observed_result = 0.0187

[[record]]
query_smiles = "O=C(O)c1cc2c(Oc3ccc(Cl)cc3)cncc2s1"
observed_result = 0.002

[[record]]
query_smiles = "CNC(=O)c1cc2c(Oc3ccc(Cl)cc3)cncc2s1"
observed_result = 0.015

[[record]]
query_smiles = "CCC(=O)c1cc2c(Oc3ccc(Cl)cc3)cncc2s1"
observed_result = "< 0.001"

[[record]]
query_smiles = "NC(=O)c1cc2c(Oc3ccc(OC(F)(F)F)cc3)cncc2s1"
observed_result = 0.021


Working through the 6 molecules below one at a time, give fraction unbound for each.
1. N#Cc1ccc(Oc2cncc3sc(C(N)=O)cc23)cc1
2. O=C(NC1CC1)c1cc2c(Oc3ccc(Cl)cc3)cncc2s1
3. CC(=O)Nc1ccc(Oc2cncc3sc(C(N)=O)cc23)cc1
4. CNC(=O)c1cc2c(Oc3ccc(I)cc3)cncc2s1
5. Cc1ncc(Oc2ccc(Cl)cc2)c2cc(C(N)=O)sc12
6. CC(=O)c1cc2c(Oc3ccc(Cl)cc3)cncc2s1

1: 0.153; 2: 0.008; 3: 0.09; 4: 0.002; 5: 0.007; 6: 0.003

Each molecule below has a reported value. Please supply its fraction unbound.
1. Cc1ccc(Oc2cncc3sc(C(N)=O)cc23)cc1
2. NC(=O)c1ccc(Oc2cncc3sc(C(N)=O)cc23)cc1
3. COc1ccc(Oc2cncc3sc(C(N)=O)cc23)cc1

0.028
0.227
0.064

====

Record form. Attribute: pIC50. Fill in for each entry.
molecular target: CDK8/Cyclin C (Homo sapiens, UniProt P49336); test: Inhibition of full length human recombinant His-tagged CDK8/Cyclin C expressed in baculovirus expression system by fluorescence polarization assay
Sequence (P49336 whole entry): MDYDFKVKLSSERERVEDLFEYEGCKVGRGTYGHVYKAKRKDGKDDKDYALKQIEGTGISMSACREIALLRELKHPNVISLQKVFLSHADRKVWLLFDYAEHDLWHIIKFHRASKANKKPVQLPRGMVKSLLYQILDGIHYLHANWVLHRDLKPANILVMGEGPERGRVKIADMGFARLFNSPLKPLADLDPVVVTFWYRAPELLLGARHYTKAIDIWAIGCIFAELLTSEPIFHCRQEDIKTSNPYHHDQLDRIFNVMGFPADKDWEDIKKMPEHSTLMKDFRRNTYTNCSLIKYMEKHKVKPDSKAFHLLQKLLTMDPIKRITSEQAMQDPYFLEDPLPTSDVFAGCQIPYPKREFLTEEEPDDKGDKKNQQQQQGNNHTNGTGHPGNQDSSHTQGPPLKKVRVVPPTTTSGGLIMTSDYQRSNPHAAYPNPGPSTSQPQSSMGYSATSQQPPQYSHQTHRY
Sequence (P24863 whole entry, further chain): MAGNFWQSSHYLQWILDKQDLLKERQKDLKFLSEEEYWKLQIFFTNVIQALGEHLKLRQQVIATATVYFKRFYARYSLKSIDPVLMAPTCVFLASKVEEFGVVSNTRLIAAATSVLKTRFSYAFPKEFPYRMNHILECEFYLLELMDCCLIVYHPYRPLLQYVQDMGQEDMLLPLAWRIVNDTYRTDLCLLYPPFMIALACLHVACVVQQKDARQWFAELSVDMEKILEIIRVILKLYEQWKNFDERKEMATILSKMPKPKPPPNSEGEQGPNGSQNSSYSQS
Numbers only, as −log10 of the molar value.

Solved entries (count: 5):
[[record]]
query_smiles = "Cc1ccc(Oc2cncc3sc(-c4nn[nH]n4)cc23)cc1"
observed_result = 8.80

[[record]]
query_smiles = "O=C(O)c1cc2c(Oc3ccc(Cl)cc3)cncc2s1"
observed_result = 8.55

[[record]]
query_smiles = "Ic1ccc(Oc2cncc3sc(-c4nn[nH]n4)cc23)cc1"
observed_result = 9.15

[[record]]
query_smiles = "N#Cc1ccc(Oc2cncc3sc(-c4nnn[nH]4)cc23)cc1"
observed_result = 9.00

[[record]]
query_smiles = "COc1ccc(Oc2cncc3sc(C(N)=O)cc23)cc1"
observed_result = 7.60


Required: pIC50, one value per compound below.
1. O=C(NC1CC1)c1cc2c(Oc3ccc(Cl)cc3)cncc2s1
2. Clc1ccc(Oc2cncc3sc(-c4nnn[nH]4)cc23)cc1
3. NC(=O)c1cc2c(Oc3ccc(Cl)cc3)cnc(Cl)c2s1
4. Fc1ccc(Oc2cncc3sc(-c4nnn[nH]4)cc23)cc1
5. COC(=O)c1cc2c(Oc3ccc(Cl)cc3)cncc2s1

1. 7.62
2. 8.96
3. 7.96
4. 8.26
5. 7.21

====

experiment: Plasma protein binding in rat; assay type: ADME, cell-free; conditions: read-out: PPB (converted)
test_readout: fraction unbound
Give bare numbers.

Here are 5 molecules together with their reported answers.
[[record]]
query_smiles = "CNC(=O)c1cc2c(Oc3ccc(Cl)cc3)cncc2s1"
observed_result = 0.01

[[record]]
query_smiles = "NC(=O)c1cc2c(Oc3ccc(OC(F)(F)F)cc3)cncc2s1"
observed_result = 0.032

[[record]]
query_smiles = "Cc1ncc(Oc2ccc(Cl)cc2)c2cc(C(N)=O)sc12"
observed_result = 0.008

[[record]]
query_smiles = "O=C(O)c1cc2c(Oc3ccc(Cl)cc3)cncc2s1"
observed_result = 0.003

[[record]]
query_smiles = "CNC(=O)c1cc2c(Oc3ccc(I)cc3)cncc2s1"
observed_result = 0.001


// for each molecule below, give its fraction unbound
1. N#Cc1ccc(Oc2cncc3sc(C(N)=O)cc23)cc1
2. COc1ccc(Oc2cncc3sc(C(N)=O)cc23)cc1
3. NC(=O)c1cc2c(Oc3ccc(Cl)cc3)cnc(N)c2s1
4. NC(=O)c1ccc(Oc2cncc3sc(C(N)=O)cc23)cc1

[0.127, 0.06, 0.023, 0.232]

Provide fraction unbound values for the following items, in order.
1. CC(=O)c1cc2c(Oc3ccc(Cl)cc3)cncc2s1
2. Cc1ccc(Oc2cncc3sc(C(N)=O)cc23)cc1
3. O=C(NC1CC1)c1cc2c(Oc3ccc(Cl)cc3)cncc2s1
4. CC(=O)Nc1ccc(Oc2cncc3sc(C(N)=O)cc23)cc1

0.002
0.041
0.007
0.152

====

Hi there, I'd appreciate the recorded solubility kinetic at 24 h, 200 µM for every entry that follows.
test: Kinetic solubility in DMSO/phosphate buffered saline at pH 7.4 at 200 uM after 24 hrs by UHPLC based chemiluminescent nitrogen detection method; format: physicochemical; settings: read-out: Kinetic_solubility
One number for each entry, in µM.

Solved entries:
[[record]]
query_smiles = "N#Cc1ccc(Oc2cncc3sc(C(N)=O)cc23)cc1"
test_readout = "solubility kinetic at 24 h, 200 µM"
uom = "µM"
observed_result = 8

[[record]]
query_smiles = "NC(=O)c1cc2c(Oc3ccc(Cl)cc3)cnc(N)c2s1"
test_readout = "solubility kinetic at 24 h, 200 µM"
uom = "µM"
observed_result = 5.5

[[record]]
query_smiles = "NC(=O)c1ccc(Oc2cncc3sc(C(N)=O)cc23)cc1"
test_readout = "solubility kinetic at 24 h, 200 µM"
uom = "µM"
observed_result = 7

[[record]]
query_smiles = "NC(=O)c1cc2c(Oc3ccc(Cl)cc3)cncc2s1"
test_readout = "solubility kinetic at 24 h, 200 µM"
uom = "µM"
observed_result = 6.3

[[record]]
query_smiles = "COc1ccc(Oc2cncc3sc(C(N)=O)cc23)cc1"
test_readout = "solubility kinetic at 24 h, 200 µM"
uom = "µM"
observed_result = 10


Please go through the list and note solubility kinetic at 24 h, 200 µM for each compound.
1. Cc1ncc(Oc2ccc(Cl)cc2)c2cc(C(N)=O)sc12
2. CC(=O)Nc1ccc(Oc2cncc3sc(C(N)=O)cc23)cc1

[10, 18]

====

assay: Permeability from apical to basolateral side in MDCK cells; type: ADME, cell-based, Canis lupus familiaris; details: dog, read-out: permeability
Assignment: determine reported Papp A→B for the given compounds.
One number for each entry, in ×10⁻⁶ cm/s.

[[record]]
query_smiles = "Fc1ccc(Oc2cncc3sc(-c4nnn[nH]4)cc23)cc1"
observed_result = 9.1

[[record]]
query_smiles = "Cc1ccc(Oc2cncc3sc(-c4nn[nH]n4)cc23)cc1"
observed_result = 12

[[record]]
query_smiles = "N#Cc1ccc(Oc2cncc3sc(-c4nnn[nH]4)cc23)cc1"
observed_result = 2.5

[[record]]
query_smiles = "FC(F)(F)Oc1ccc(Oc2cncc3sc(-c4nnn[nH]4)cc23)cc1"
observed_result = 24

[[record]]
query_smiles = "Clc1ccc(Oc2cncc3sc(-c4nnn[nH]4)cc23)cc1"
observed_result = 11

[[record]]
query_smiles = "CC(=O)Nc1ccc(Oc2cncc3sc(-c4nnn[nH]4)cc23)cc1"
observed_result = 0.8


Provide Papp A→B values for the following items, in order.
1. NC(=O)c1ccc(-c2ccc(Oc3cncc4sc(-c5nn[nH]n5)cc34)cc2)cc1
2. NC(=O)c1ccc(Oc2cncc3sc(-c4nnn[nH]4)cc23)cc1
3. Ic1ccc(Oc2cncc3sc(-c4nn[nH]n4)cc23)cc1
4. c1ccc(Oc2cncc3sc(-c4nn[nH]n4)cc23)cc1

1.9
0.7
24
4.1

The values you see were collected from ChEMBL document CHEMBL3804775.
